Entry source: patent US20230355720A1

# Experimental target: human GCG receptor (human, UniProt P47871 26-477)
# Sequence (P47871 26-477): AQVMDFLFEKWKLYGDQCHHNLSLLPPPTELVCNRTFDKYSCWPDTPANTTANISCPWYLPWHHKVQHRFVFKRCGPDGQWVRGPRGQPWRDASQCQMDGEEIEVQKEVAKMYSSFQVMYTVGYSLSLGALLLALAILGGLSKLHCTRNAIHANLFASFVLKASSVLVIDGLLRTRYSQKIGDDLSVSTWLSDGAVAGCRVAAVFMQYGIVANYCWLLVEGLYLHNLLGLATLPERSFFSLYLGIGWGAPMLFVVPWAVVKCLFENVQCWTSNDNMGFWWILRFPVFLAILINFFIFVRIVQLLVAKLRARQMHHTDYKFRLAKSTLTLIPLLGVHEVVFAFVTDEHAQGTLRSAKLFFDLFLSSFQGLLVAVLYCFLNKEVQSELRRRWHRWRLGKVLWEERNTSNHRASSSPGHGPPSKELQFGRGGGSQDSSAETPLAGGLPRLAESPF
# Measurement protocol: cell-based or functional assay
Bridge positions count the residues as written; N and C are the ends. Square brackets hold non-standard residues; d marks the D form. Ends that are not written are not given here. * marks the point of attachment. Acetyl(2-(4-imidazolyl)) = O=C(Cc1c[nH]cn1)*; Aib = CC(C)(N)C(=O)O
Measurement kind: In vitro activity (%) compared with native peptide, vs Glucagon

Binder	Data value
H[Aib]QGTFTSDVSKYLDGQAAKEFVAWLLKGC [triple agonist of SEQ ID NO: 7]	< 0.1%
[Acetyl(2-(4-imidazolyl))][Aib]QGTFTSDKSKYLDERAAQDFVQWLLDGGPSSGAPPPS (not fully specified) [triple agonist of SEQ ID NO: 62]	< 0.1%
Y[Aib]QGTFTSDYSKYLDEKAAKDFVQWLLDHHPSSGQPPPSC (bridge 16-20; also: ring between positions 16 and 20, type not given here) [triple agonist of SEQ ID NO: 77]	12.2%
Y[Aib]QGTFTSDYSKYLDEKRAKEFVQWLLCHHPSSGQPPPS (bridge 16-20) [triple agonist of SEQ ID NO: 95]	0.4%
[Acetyl(2-(4-imidazolyl))][Aib]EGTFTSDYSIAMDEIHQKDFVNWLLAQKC (bridge 16-20; not fully specified) [triple agonist of SEQ ID NO: 90]	< 0.1%
